target: Albumin (Homo sapiens, UniProt P02768); experiment: Protein binding in human serum albumin by chromatography; assay type: ADME; details: read-out: PPB (converted)
Sequence (P02768 whole entry): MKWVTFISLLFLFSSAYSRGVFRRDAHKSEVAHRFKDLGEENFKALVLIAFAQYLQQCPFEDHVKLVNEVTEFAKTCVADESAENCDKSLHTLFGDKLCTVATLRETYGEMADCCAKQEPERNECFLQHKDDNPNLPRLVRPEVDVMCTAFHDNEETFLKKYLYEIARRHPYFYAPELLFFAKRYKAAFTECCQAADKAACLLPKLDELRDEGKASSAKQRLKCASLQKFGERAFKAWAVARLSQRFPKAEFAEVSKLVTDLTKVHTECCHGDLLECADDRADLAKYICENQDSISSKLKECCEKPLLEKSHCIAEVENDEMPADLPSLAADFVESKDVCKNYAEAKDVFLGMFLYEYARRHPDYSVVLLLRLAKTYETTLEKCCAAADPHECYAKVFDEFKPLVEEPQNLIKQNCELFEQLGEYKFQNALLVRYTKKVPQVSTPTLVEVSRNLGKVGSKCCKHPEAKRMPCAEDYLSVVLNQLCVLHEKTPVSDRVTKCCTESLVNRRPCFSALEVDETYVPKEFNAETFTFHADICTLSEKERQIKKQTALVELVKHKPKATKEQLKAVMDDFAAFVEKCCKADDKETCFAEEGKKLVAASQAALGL
Hi, to clarify the labels: Criterion met covers fraction unbound from 0.05 upward, Criterion not met covers anything below 0.05.

# cpd_smiles, answer_label
records = [
    ("O=C1CC(c2cccc(-n3ccnc3)c2)=Nc2ccc(-c3ccc(I)cc3)cc2N1", "Criterion not met"),
    ("COc1cc2c(cc1C(F)(F)F)NC(=O)CC(c1cccc(-n3ccnc3)c1)=N2", "Criterion met"),
    ("COc1cc2c(cc1-c1ccc(I)cc1)NC(=O)CC(c1cccc(-n3ccnc3)c1)=N2", "Criterion not met"),
    ("O=C1CC(c2cccc(-n3ccnc3)c2)=Nc2ccc(-c3cccc(I)c3)cc2N1", "Criterion not met"),
]

---

target: Metabotropic glutamate receptor 2 (Homo sapiens, UniProt Q14416); test: Non-competitive antagonist activity at human recombinant mGluR2 expressed in Chem-1 cell membrane assessed as inhibition of L-glutamate-induced [35S]GTPgammaS binding after 30 mins by liquid scintillation counting analysis
Sequence (Q14416 whole entry): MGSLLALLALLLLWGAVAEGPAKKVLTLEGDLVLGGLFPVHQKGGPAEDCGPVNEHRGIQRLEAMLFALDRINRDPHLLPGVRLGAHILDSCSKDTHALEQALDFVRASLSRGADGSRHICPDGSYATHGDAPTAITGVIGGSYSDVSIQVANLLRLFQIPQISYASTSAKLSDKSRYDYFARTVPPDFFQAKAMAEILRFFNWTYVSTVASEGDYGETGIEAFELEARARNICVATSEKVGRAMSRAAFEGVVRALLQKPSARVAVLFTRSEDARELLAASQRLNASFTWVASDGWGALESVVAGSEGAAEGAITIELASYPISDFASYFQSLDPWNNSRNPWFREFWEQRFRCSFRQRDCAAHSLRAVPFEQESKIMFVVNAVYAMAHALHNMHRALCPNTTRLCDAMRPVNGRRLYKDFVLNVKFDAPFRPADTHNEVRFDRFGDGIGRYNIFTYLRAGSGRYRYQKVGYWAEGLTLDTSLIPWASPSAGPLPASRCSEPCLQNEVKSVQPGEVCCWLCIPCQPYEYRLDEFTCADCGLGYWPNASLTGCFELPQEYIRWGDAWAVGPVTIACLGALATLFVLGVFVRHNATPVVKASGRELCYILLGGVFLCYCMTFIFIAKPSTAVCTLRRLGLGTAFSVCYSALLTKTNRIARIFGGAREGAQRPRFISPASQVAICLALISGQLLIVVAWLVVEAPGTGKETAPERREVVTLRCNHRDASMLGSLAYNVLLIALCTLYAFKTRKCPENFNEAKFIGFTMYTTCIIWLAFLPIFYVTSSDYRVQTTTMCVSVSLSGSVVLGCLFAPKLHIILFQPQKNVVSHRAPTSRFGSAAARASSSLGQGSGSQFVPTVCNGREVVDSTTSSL
Attribute: IC50

# cpd_smiles, IC50 (µM)
rows = [
    ("Clc1cccc(Cl)c1/C(=C/n1cncn1)OC1CCCCCC1", 0.533),
    ("COc1cc2c(cc1C(F)(F)F)NC(=O)CC(c1cccc(-n3ccnc3)c1)=N2", 0.091),
    ("O=C1CC(c2cccc(-n3ccnc3)c2)=Nc2ccc(-c3cccc(I)c3)cc2N1", 0.132),
    ("O=C1CC(c2cccc(-n3ccnc3)c2)=Nc2ccc(-c3ccc(I)cc3)cc2N1", 0.133),
    ("COc1cc2c(cc1-c1ccc(I)cc1)NC(=O)CC(c1cccc(-n3ccnc3)c1)=N2", 0.089),
    ("O=C1CC(c2cccc(-n3ccnc3)c2)=Nc2ccc(I)cc2N1", 0.089),
    ("O=C1CC(c2cccc(-n3ccnc3)c2)=Nc2cc(OCCCF)c(C(F)(F)F)cc2N1", 0.1),
]

---

test: Lipophilicity, log P of the compound by HPLC analysis; format: physicochemical
Attribute: logP
measurement_type: logP

# cpd_smiles, measurement_type, measured_number
data = [
    ("COc1cc2c(cc1-c1ccc(I)cc1)NC(=O)CC(c1cccc(-n3ccnc3)c1)=N2", "logP", 5.72),
    ("O=C1CC(c2cccc(-n3ccnc3)c2)=Nc2ccc(-c3ccc(I)cc3)cc2N1", "logP", 5.77),
    ("COc1cc2c(cc1C(F)(F)F)NC(=O)CC(c1cccc(-n3ccnc3)c1)=N2", "logP", 4.67),
    ("O=C1CC(c2cccc(-n3ccnc3)c2)=Nc2ccc(-c3cccc(I)c3)cc2N1", "logP", 5.73),
    ("O=C1CC(c2cccc(-n3ccnc3)c2)=Nc2ccc(I)cc2N1", "logP", 4.6),
    ("O=C1CC(c2cccc(-n3ccnc3)c2)=Nc2cc(OCCCF)c(C(F)(F)F)cc2N1", "logP", 5.06),
]
